assay: Total clearance in cynomolgus monkey at 1 mg/kg, iv; assay type: ADME, organism-based, Macaca fascicularis; design: dose 1 mg/kg, route intravenous; settings: in vivo
reported_endpoint: clearance (mL/min/kg)
Hi! Could you send only the number? It should be in mL/min/kg, unit omitted.

Quick note, clearance for Cc1cc(N2CCC(N(C)C(=O)CCS(=O)(=O)c3ccc4cc(Cl)ccc4c3)CC2)ccn1 landed at 12.2

---

biological target: UniProtKB P08684; assay: Inhibition of human CYP3A4 at 1 uM by spectrofluorimeter; type: ADME
Sequence (P08684 whole entry): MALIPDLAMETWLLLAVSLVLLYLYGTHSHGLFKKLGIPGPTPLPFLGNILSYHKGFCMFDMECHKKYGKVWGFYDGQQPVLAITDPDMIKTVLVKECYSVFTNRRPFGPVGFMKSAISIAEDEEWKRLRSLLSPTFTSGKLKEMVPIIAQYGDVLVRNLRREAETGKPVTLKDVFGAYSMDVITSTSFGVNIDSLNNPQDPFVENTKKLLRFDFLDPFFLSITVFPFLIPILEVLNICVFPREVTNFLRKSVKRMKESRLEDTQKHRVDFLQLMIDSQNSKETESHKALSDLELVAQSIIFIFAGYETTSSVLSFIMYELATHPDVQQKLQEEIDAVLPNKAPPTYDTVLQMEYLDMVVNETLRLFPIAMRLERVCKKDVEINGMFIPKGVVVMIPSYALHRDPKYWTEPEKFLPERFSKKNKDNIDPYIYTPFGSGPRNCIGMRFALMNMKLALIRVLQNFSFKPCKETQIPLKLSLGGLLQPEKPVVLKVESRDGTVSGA
Exercise: state measured inhibition at 1 µM for each of the molecules provided.
State the value, then name its unit.

Quick note, inhibition at 1 µM for CN(C(=O)CCS(=O)(=O)c1ccc2cc(Cl)ccc2c1)C1CCN(c2ccncc2)CC1 landed at 81%

Quick note, inhibition at 1 µM for CN(C(=O)CCS(=O)(=O)c1ccc2cc(Cl)ccc2c1)C1CCN(c2ccnc(N)c2)CC1 landed at 49%

Quick note, inhibition at 1 µM for Cc1cc(N2CCC(N(C)C(=O)CCS(=O)(=O)c3ccc4cc(Cl)ccc4c3)CC2)cc(C)n1 landed at 40%

Quick note, inhibition at 1 µM for CN(C(=O)CCS(=O)(=O)c1ccc2cc(Cl)ccc2c1)C1CCN(c2ccnc(CO)c2)CC1 landed at 21%

Quick note, inhibition at 1 µM for Cc1cc(N2CCC(N(C)C(=O)CCS(=O)(=O)c3ccc4cc(Cl)ccc4c3)CC2)ccn1 landed at 40%
